methodDescription: Solubility measurement in various solvents at 50° C. (Procedure 2)
Type: physicochemical
conditionInfo: EtOH, organic solvent or mixture
Description: The solubility of Compound 1 Di-Hydrochloric Acid Salt Form I was measured according to Procedure 1 for solubility in 25° C. (Table 5) and Procedure 2 for 50° C. [table] [table]
endpoint: solubility (µg/mL)
Respond numerically; units are µg/mL and should not be typed.

solubility in this record for Cl.Cl.Cn1c(C(=O)Nc2cccc(-c3cccc(NC(=O)c4nc5c(n4C)CCN(CCC46CCC(C(=O)O)(CC4)C6)C5)c3Cl)c2Cl)nc2c1CCN(CCC13CCC(C(=O)O)(CC1)C3)C2 : 1100

====

methodDescription: Solubility measurement in various solvents at 25° C. (Procedure 1)
Assay type: physicochemical
conditionInfo: 10% water in acetonitrile, organic solvent or mixture, thermodynamic from solid
endpoint: solubility (mg/mL)
Expressed in mg/mL, but write only the number.

# compound Cl.Cl.Cn1c(C(=O)Nc2cccc(-c3cccc(NC(=O)c4nc5c(n4C)CCN(CCC46CCC(C(=O)O)(CC4)C6)C5)c3Cl)c2Cl)nc2c1CCN(CCC13CCC(C(=O)O)(CC1)C3)C2 ; its solubility = 3.64

====

methodDescription: Solubility measurement in various solvents at 50° C. (Procedure 2)
Type: physicochemical
conditionInfo: 1,4-dioxane, organic solvent or mixture
endpoint: solubility (µg/mL)
Number in µg/mL, nothing else.

Form: molecule = Cl.Cl.Cn1c(C(=O)Nc2cccc(-c3cccc(NC(=O)c4nc5c(n4C)CCN(CCC46CCC(C(=O)O)(CC4)C6)C5)c3Cl)c2Cl)nc2c1CCN(CCC13CCC(C(=O)O)(CC1)C3)C2 ; solubility = 10

====

methodDescription: Solubility measurement in various solvents at 25° C. (Procedure 1)
Format: physicochemical
conditionInfo: IPA, organic solvent or mixture, thermodynamic from solid
endpoint: solubility (µg/mL)
Write it as a number; the unit µg/mL goes unstated.

Quick note, solubility for Cl.Cl.Cn1c(C(=O)Nc2cccc(-c3cccc(NC(=O)c4nc5c(n4C)CCN(CCC46CCC(C(=O)O)(CC4)C6)C5)c3Cl)c2Cl)nc2c1CCN(CCC13CCC(C(=O)O)(CC1)C3)C2 landed at 650

====

methodDescription: Solubility measurement in various solvents at 50° C. (Procedure 2)
Assay type: physicochemical
conditionInfo: 2% water in acetone, organic solvent or mixture
endpoint: solubility

The reported value for Cl.Cl.Cn1c(C(=O)Nc2cccc(-c3cccc(NC(=O)c4nc5c(n4C)CCN(CCC46CCC(C(=O)O)(CC4)C6)C5)c3Cl)c2Cl)nc2c1CCN(CCC13CCC(C(=O)O)(CC1)C3)C2 in terms of solubility is 110 µg/mL

====

methodDescription: Solubility measurement in various solvents at 25° C. (Procedure 1)
Format: physicochemical
conditionInfo: 2% water in acetonitrile, organic solvent or mixture, thermodynamic from solid
endpoint: solubility

So, Cl.Cl.Cn1c(C(=O)Nc2cccc(-c3cccc(NC(=O)c4nc5c(n4C)CCN(CCC46CCC(C(=O)O)(CC4)C6)C5)c3Cl)c2Cl)nc2c1CCN(CCC13CCC(C(=O)O)(CC1)C3)C2 ? Its solubility was 0.01 mg/mL

====

methodDescription: Solubility measurement in various solvents at 50° C. (Procedure 2)
Assay type: physicochemical
conditionInfo: organic solvent or mixture, thermodynamic from solid, n-BuOH, solid phase Form IV
endpoint: solubility (µg/mL)
# number only, unit µg/mL dropped from output

Given item Cl.Cl.Cn1c(C(=O)Nc2cccc(-c3cccc(NC(=O)c4nc5c(n4C)CCN(CCC46CCC(C(=O)O)(CC4)C6)C5)c3Cl)c2Cl)nc2c1CCN(CCC13CCC(C(=O)O)(CC1)C3)C2 , the value recorded as its solubility is 420
